Values were extracted from the supplement of paper PMC10307832.

Test system: NCI-H1355
assayRemarks: relative viability (nuclei count vs DMSO), 5 days (fraction); higher = more cells survive
conditionDescription: first compound 1.265 µM
Reported relative viability values follow for various compounds

compound	relative viability
Cc1sc2c(c1C)C(c1ccc(Cl)cc1)=N[C@@H](CC(=O)OC(C)(C)C)c1nnc(C)n1-2 [JQ1] + C[C@@H](Oc1cc(-c2cnn(C3CCNCC3)c2)cnc1N)c1c(Cl)ccc(F)c1Cl [Crizotinib] (partner 1 µM)	0.559
Cc1sc2c(c1C)C(c1ccc(Cl)cc1)=N[C@@H](CC(=O)OC(C)(C)C)c1nnc(C)n1-2 [JQ1] + N=C(N)NC(=N)NCCc1ccccc1 [Phenformin] (partner 250 µM)	0.388
Cc1sc2c(c1C)C(c1ccc(Cl)cc1)=N[C@@H](CC(=O)OC(C)(C)C)c1nnc(C)n1-2 [JQ1] + COc1cc2c(Oc3ccc(NC(=O)C4(C(=O)Nc5ccc(F)cc5)CC4)cc3F)ccnc2cc1OCCCN1CCOCC1 [Foretinib] (partner 0.25 µM)	0.677
Cc1sc2c(c1C)C(c1ccc(Cl)cc1)=N[C@@H](CC(=O)OC(C)(C)C)c1nnc(C)n1-2 [JQ1] + CC(=O)c1c(C)c2cnc(Nc3ccc(N4CCNCC4)cn3)nc2n(C2CCCC2)c1=O [Palbociclib] (partner 0.5 µM)	0.276

* * *

System: NCI-H2228
assayRemarks: relative viability (nuclei count vs DMSO), 5 days (fraction); higher = more cells survive
conditionDescription: first compound 8 µM
Reported relative viability values follow for various compounds

compound	relative viability
O=c1[nH]c2ccccc2n1C1CCN(CCCC(c2ccc(F)cc2)c2ccc(F)cc2)CC1 [Pimozide] + Nc1nc2[nH]cc(CCc3ccc(C(=O)N[C@@H](CCC(=O)O)C(=O)O)cc3)c2c(=O)[nH]1 [Pemetrexed] (partner 0.2 µM)	0.229
O=c1[nH]c2ccccc2n1C1CCN(CCCC(c2ccc(F)cc2)c2ccc(F)cc2)CC1 [Pimozide] + CC1(C)CCC(c2ccc(Cl)cc2)=C(CN2CCN(c3ccc(C(=O)NS(=O)(=O)c4ccc(N[C@H](CCN5CCOCC5)CSc5ccccc5)c(S(=O)(=O)C(F)(F)F)c4)cc3)CC2)C1 [Navitoclax] (partner 0.5 µM)	0.614
O=c1[nH]c2ccccc2n1C1CCN(CCCC(c2ccc(F)cc2)c2ccc(F)cc2)CC1 [Pimozide] + Cc1nc(NC(=O)N2CCC[C@H]2C(N)=O)sc1-c1ccnc(C(C)(C)C(F)(F)F)c1 [Alpelisib] (partner 2 µM)	0.482
O=c1[nH]c2ccccc2n1C1CCN(CCCC(c2ccc(F)cc2)c2ccc(F)cc2)CC1 [Pimozide] + O=C(c1cc(Cc2n[nH]c(=O)c3ccccc23)ccc1F)N1CCN(C(=O)C2CC2)CC1 [Olaparib] (partner 8 µM)	0.344

* * *

Test system: COR-L 105
assayRemarks: relative viability (nuclei count vs DMSO), 5 days (fraction); higher = more cells survive
conditionDescription: first compound 0.005 µM
Labelling field: enter satisfied if recorded relative viability is less than 0.4. Enter not satisfied if it equals or exceeds that cut-off.

compound	group
Nc1ccn([C@@H]2O[C@H](CO)[C@@H](O)[C@@H]2O)c(=O)n1 [Cytarabine] + Cc1cc(Nc2cc(N3CCN(C)CC3)nc(Sc3ccc(NC(=O)C4CC4)cc3)n2)n[nH]1 [Tozasertib] (partner 0.1 µM)	satisfied
COc1cc2nccc(Oc3ccc(NC(=O)Nc4cc(C)on4)c(Cl)c3)c2cc1OC [Tivozanib] + CC(=O)Nc1cccc(-n2c(=O)n(C3CC3)c(=O)c3c(Nc4ccc(I)cc4F)n(C)c(=O)c(C)c32)c1 [Trametinib] (partner 0.02 µM)	not satisfied
Nc1ccn([C@@H]2O[C@H](CO)[C@@H](O)[C@@H]2O)c(=O)n1 [Cytarabine] + COc1cccc2cc(-c3nc([C@H]4CC[C@H](C(=O)O)CC4)n4ncnc(N)c34)[nH]c12 [OSI-027] (partner 0.5 µM)	not satisfied
Nc1ccn([C@@H]2O[C@H](CO)[C@@H](O)[C@@H]2O)c(=O)n1 [Cytarabine] + Cc1nc(NC(=O)N2CCC[C@H]2C(N)=O)sc1-c1ccnc(C(C)(C)C(F)(F)F)c1 [Alpelisib] (partner 2 µM)	not satisfied
Nc1ccn([C@@H]2O[C@H](CO)[C@@H](O)[C@@H]2O)c(=O)n1 [Cytarabine] + Cc1nc(Nc2ncc(C(=O)Nc3c(C)cccc3Cl)s2)cc(N2CCN(CCO)CC2)n1 [Dasatinib] (partner 0.075 µM)	satisfied
Nc1ccn([C@@H]2O[C@H](CO)[C@@H](O)[C@@H]2O)c(=O)n1 [Cytarabine] + CC(=O)c1c(C)c2cnc(Nc3ccc(N4CCNCC4)cn3)nc2n(C2CCCC2)c1=O [Palbociclib] (partner 0.5 µM)	satisfied
Nc1ccn([C@@H]2O[C@H](CO)[C@@H](O)[C@@H]2O)c(=O)n1 [Cytarabine] + Nc1ncn([C@H]2C[C@H](O)[C@@H](CO)O2)c(=O)n1 [Decitabine] (partner 2 µM)	not satisfied
Nc1ccn([C@@H]2O[C@H](CO)[C@@H](O)[C@@H]2O)c(=O)n1 [Cytarabine] + CS(=O)(=O)N1CCN(Cc2cc3nc(-c4cccc5[nH]ncc45)nc(N4CCOCC4)c3s2)CC1 [Pictilisib] (partner 1 µM)	satisfied
Nc1ccn([C@@H]2O[C@H](CO)[C@@H](O)[C@@H]2O)c(=O)n1 [Cytarabine] + CCNC(=O)c1noc(-c2cc(C(C)C)c(O)cc2O)c1-c1ccc(CN2CCOCC2)cc1 [Luminespib] (partner 0.01 µM)	not satisfied
